experimentDescription: AUC in Beagle dog at 8.2 mg/kg, po by LC-MS/MS analysis
Assay type: ADME, organism-based, Canis lupus familiaris
Set-up: dose 8.2 mg/kg, route oral
conditionNotes: plasma
measure: AUC (ng·h/mL)
# unit: ng·h/mL | format: bare number

Query block: State its AUC for this molecule: O=C(O)c1ccc2c(c1)nc(Nc1cccc(Cl)c1)c1ccncc12
Result block: 5650

---

testedTarget: Poly [ADP-ribose] polymerase 1 (Homo sapiens, UniProt P09874)
Sequence (P09874 whole entry): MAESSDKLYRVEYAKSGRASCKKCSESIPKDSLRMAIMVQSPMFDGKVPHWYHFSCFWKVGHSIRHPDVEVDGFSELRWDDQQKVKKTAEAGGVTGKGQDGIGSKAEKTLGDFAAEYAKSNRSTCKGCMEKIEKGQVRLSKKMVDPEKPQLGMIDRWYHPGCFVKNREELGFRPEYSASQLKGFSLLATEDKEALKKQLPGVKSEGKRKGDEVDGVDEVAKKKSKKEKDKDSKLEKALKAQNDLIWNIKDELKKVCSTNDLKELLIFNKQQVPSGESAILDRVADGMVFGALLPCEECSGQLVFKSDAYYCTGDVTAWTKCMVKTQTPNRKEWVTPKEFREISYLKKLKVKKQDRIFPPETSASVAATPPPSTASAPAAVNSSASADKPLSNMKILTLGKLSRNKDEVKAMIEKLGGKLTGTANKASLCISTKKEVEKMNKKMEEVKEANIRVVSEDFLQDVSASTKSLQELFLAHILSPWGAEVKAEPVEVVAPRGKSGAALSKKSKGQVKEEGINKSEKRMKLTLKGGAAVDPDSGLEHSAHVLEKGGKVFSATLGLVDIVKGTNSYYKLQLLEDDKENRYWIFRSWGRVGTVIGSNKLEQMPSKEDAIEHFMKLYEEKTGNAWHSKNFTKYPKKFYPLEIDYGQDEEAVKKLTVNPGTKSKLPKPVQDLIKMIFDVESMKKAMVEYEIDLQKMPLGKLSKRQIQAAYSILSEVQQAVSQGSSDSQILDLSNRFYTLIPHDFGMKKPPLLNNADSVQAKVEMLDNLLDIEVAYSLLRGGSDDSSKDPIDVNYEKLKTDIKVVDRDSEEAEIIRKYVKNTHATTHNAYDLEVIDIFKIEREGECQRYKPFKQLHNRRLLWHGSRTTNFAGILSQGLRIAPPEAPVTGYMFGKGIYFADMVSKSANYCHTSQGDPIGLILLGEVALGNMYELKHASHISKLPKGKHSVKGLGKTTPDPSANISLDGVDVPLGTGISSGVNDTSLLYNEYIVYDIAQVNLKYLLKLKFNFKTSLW
conditionNotes: 1 uM
Description: Inhibition of PARP1 at 1 uM by chemiluminescence assay
measure: inhibition (%)
Write it as a number; the unit % goes unstated.

Query block: Supply inhibition value. Item: O=C(O)c1ccc2c(c1)nc(NCCCO)c1ccsc12
Result block: 12

Query block: Assign inhibition to the following record: O=C(O)c1ccc2c3sccc3c(=O)n(CCCO)c2c1
Result block: 21

Query block: For O=C(O)c1ccc2c(c1)nc(OCCCO)c1ccsc12 , write its inhibition.
Result block: 7

Query block: Could you please provide reported inhibition for O=C(O)c1ccc2c(c1)[nH]c(=O)c1ccsc12 ? Thanks!
Result block: 58

---

System: PC-3
experimentDescription: cells
conditionNotes: Homo sapiens, PC-3, 96 h
Description: Antiproliferative activity against human PC3 cells after 4 days by alamar blue assay
pIC50: −log10 of the molar value.
Classify as follows. Reported pIC50 greater than or equal to 5: fulfilled. Reported pIC50 below: not fulfilled.

Query block: Textbook exercise: given the entry COc1cccc(Nc2nc3cc(C(=O)O)ccc3c3cnccc23)c1 , state whether its pIC50 is greater than or equal to 5.
Result block: not fulfilled

Query block: Please tell me: is the compound C#Cc1cccc(Nc2nc3cc(C(=O)O)ccc3c3cnccc23)c1 at or over 5 in terms of pIC50?
Result block: not fulfilled

Query block: Exam item: decide whether the reported pIC50 for O=C(O)c1ccc2c(c1)nc(Nc1ccc(F)c(Cl)c1)c1ccncc12 is at least 5.
Result block: fulfilled

Query block: Textbook exercise: given the entry O=C(O)c1ccc2c(c1)nc(Nc1cccc(Cl)c1)c1ccncc12 , state whether its pIC50 is greater than or equal to 5.
Result block: fulfilled

Query block: Can N#Cc1cccc(Nc2nc3cc(C(=O)O)ccc3c3cnccc23)c1 be said to have pIC50 at or above 5?
Result block: not fulfilled

Query block: Does the reported pIC50 for O=C(O)c1ccc2c(c1)nc(NCCc1ccccc1)c1ccncc12 fall at or above the 5 mark?
Result block: not fulfilled

---

experimentDescription: Elimination half life in Beagle dog at 1.9 mg/kg, iv and 8.2 mg/kg, po by LC-MS/MS analysis
Type: ADME, organism-based, Canis lupus familiaris
conditionNotes: in vivo
measure: half-life (h)
# unit: h | format: bare number

Query block: State, in one line, measured half-life of O=C(O)c1ccc2c(c1)nc(Nc1cccc(Cl)c1)c1ccncc12
Result block: 8.3

---

experimentDescription: Oral bioavailability in Sprague-Dawley rat at 10.5 mg/kg, po by LC-MS/MS analysis
Assay type: ADME, organism-based
conditionNotes: in vivo
measure: bioavailability

Query block: State, in one line, measured bioavailability of O=C(O)c1ccc2c(c1)nc(Nc1cccc(Cl)c1)c1ccncc12
Result block: 48%

---

experimentDescription: Elimination half life in ICR mouse at 5 mg/kg, iv and 25 mg/kg, po by LC-MS/MS analysis
Type: ADME, organism-based
conditionNotes: in vivo
measure: half-life (min)
Hi! Could you send only the number? It should be in min, unit omitted.

Query block: State its half-life for this compound: O=C(O)c1ccc2c(c1)nc(Nc1cccc(Cl)c1)c1ccncc12 [SILMITASERTIB]
Result block: 300
